# Tested on: COLO 205
# assayName: NCI tumour cell line growth inhibition, 48 h
The source made the active and inactive calls. Rule as the data show it: active = GI50 up to about 1.1 µM and inactive = higher.
quantity: GI50

Example entries and their recorded answers appear below.
>>> print(df.to_string())
                                   molecule  quantity          resultvalue
0  CC(=O)OC[C@]1(O)CC[C@@]23CC1C[C@@H]2CCC1C(C)(C)CCC[C@@]13C (some centres undefined)      GI50   17.8 µM (inactive)
1  COc1cccc2c(SCC(=O)Nc3ccccc3-c3ccccc3NC(=O)CSc3c4ccccc4nc4c(OC)cccc34)c3ccccc3nc12      GI50  > 100 µM (inactive)
2  Cc1ccc(N/C(SCc2ccccc2)=C(\C(Cl)=C(Cl)Cl)[N+](=O)[O-])c(C)c1      GI50   17.8 µM (inactive)

-- ask Entry "O=Cc1c(Br)[nH]c2ccccc12" has what GI50?
-- reply 97.9 µM (inactive)

----------
# Test system: HL-60
# assayName: NCI tumour cell line growth inhibition, 48 h
Active and inactive are the calls of the source. Cut-off read from the data, not from the text of the source: active = GI50 up to about 1.1 µM and inactive = higher.
quantity: GI50

In [3]: df
Out[3]:
                          chemicalstructure         resultvalue
0  CN(CCN1C(=O)c2cccc3cccc(c23)C1=O)CCN1C(=O)c2cccc3cccc(c23)C1=O  68.7 µM (inactive)
1           O=c1c(-c2ccccc2F)coc2cc(F)ccc12  70.6 µM (inactive)

-- ask Field request: GI50 | item: "Cn1c(=O)c2c(ncn2CCCCn2ccnc2[N+](=O)[O-])n(C)c1=O"
-- reply > 100 µM (inactive)

----------
# Test system: SK-MEL-28
# assayName: NCI tumour cell line growth inhibition, 48 h
Active and inactive are the calls of the source. Cut-off read from the data, not from the text of the source: active = GI50 up to about 1.1 µM and inactive = higher.
Some compounds, each annotated with its measured GI50.

>>> df
                                   compound  measurementtarget  quantity          resultvalue
0  CCCc1c(C(=O)OCC)[nH]c(-c2ccc(-c3[nH]c(C(=O)OCC)c(CCC)c3C(=O)OCC)o2)c1C(=O)OCC          SK-MEL-28      GI50  > 100 µM (inactive)
1  CC1C/C(=C\c2ccc(O)c(O)c2)C(=O)/C(=C/c2ccc(O)c(O)c2)C1 (centres undefined)          SK-MEL-28      GI50   7.69 µM (inactive)
2  O=C1c2ccccc2N2OC3(N4CCCC4)CCCC3C12c1ccccc1 (centres undefined)          SK-MEL-28      GI50  > 100 µM (inactive)

-- ask I'd like to know its GI50. The compound in question is "O=C(O)c1ccc(S(=O)(=O)c2ccccc2[N+](=O)[O-])cc1"
-- reply > 10 µM (inactive)

-- ask Try the compound Cc1ccccc1NC(=O)C(=O)C1CN(c2ccccc2)N=C1N (centres undefined)
-- reply > 100 µM (inactive)

-- ask Would you kindly repeat that for COC(=O)C1=C(C(=O)OC)C(Cc2ccccc2)(OO)OC1=O (centres undefined) ?
-- reply 7.76 µM (inactive)

-- ask Similarly, "O=[N+]([O-])c1ccc(Nc2nc3ccccc3s2)cc1" ?
-- reply 46.2 µM (inactive)

-- ask Also CC1(C)OC(CCO)CN1C(=O)OCc1ccccc1 (centres undefined) ?
-- reply > 100 µM (inactive)

-- ask Quick one: "CCN(CC)CCCCC1CCN(CC(=O)N2c3ccccc3NC(=O)c3ccccc32)CC1"
-- reply > 100 µM (inactive)

-- ask What would you report for "CC(=O)Oc1c2oc3ccc(Cl)cc3c(=O)c2c(O)c2ccsc12" ?
-- reply > 100 µM (inactive)

-- ask "Cn1cnc([N+](=O)[O-])c1Sc1nc2cc([N+](=O)[O-])ccc2[nH]1" , same question.
-- reply 15.3 µM (inactive)

----------
Some compounds, each annotated with its measured GI50.
# Tested on: HCT-116
# assayName: NCI tumour cell line growth inhibition, 48 h
Active and inactive are the calls of the source. Rule as the data show it: active = GI50 up to about 1.1 µM and inactive = higher.

>>> df
                                   compound          resultvalue
0                     Cc1ccccc1N/C(N)=N/C#N  > 100 µM (inactive)
1                   C1COCCN1.S=C(S)N1CCOCC1   2.12 µM (inactive)
2  O=C(O)Cc1cccc2c(=O)c3cccc([N+](=O)[O-])c3[nH]c12  > 100 µM (inactive)
3  Cn1cnc([N+](=O)[O-])c1Sc1nc2cc([N+](=O)[O-])ccc2[nH]1   23.4 µM (inactive)

-- ask Give the measured GI50 of CC1Cc2c(N)nc(N3CCOCC3)nc2NC1=O (stereo unspecified) .
-- reply > 100 µM (inactive)

-- ask COc1cc(C2c3cc4c(cc3[C@@H](NCCN3CCOCC3)C3COC(=O)[C@H]23)OCO4)cc(OC)c1O (stereo partly specified) , same question.
-- reply 2.86 µM (inactive)

----------
// GI50 lookup, one value per entry
# System: OVCAR-5
# assayName: NCI tumour cell line growth inhibition, 48 h
Calls of active or inactive are those of the source. Rule as the data show it: active = GI50 up to about 1.1 µM and inactive = higher. Where a SMILES comes first, the peptide text is derived from it. [ ]: non-standard residue; d: D form. The star is where a group is joined. ξ: configuration not given here. ξF = NC(Cc1ccccc1)C(=O)O; Cbz = O=C(OCc1ccccc1)*; Aib = CC(C)(N)C(=O)O

These recorded examples may help you get a feel for the data.
In [3]: df
Out[3]:
                                   compound  measurementtarget          resultvalue
0  CC(=O)O[C@H]1CC[C@@]2(C)C(=CC[C@@H]3C2CC[C@]2(C)C(=O)NC(=O)CC32)C1 (stereo not given in full)            OVCAR-5  > 100 µM (inactive)
1                     Cc1ccccc1N/C(N)=N/C#N            OVCAR-5  > 100 µM (inactive)
2       C[N+](C)(N)c1nc(N)c(C#N)c(C#N)c1C#N            OVCAR-5   > 10 µM (inactive)

-- ask Query: GI50; subject: COCOCC[C@@H]1CC=CC(NC(=O)OCc2ccccc2)C1/C=C/C(=O)CCC1OCCO1 (stereo not given in full)
-- reply > 72.8 µM (inactive)

-- ask Item: "Clc1ccc2c(NCCNc3ccnc4cc(Cl)ccc34)ccnc2c1"
-- reply 16.5 µM (inactive)

-- ask Same question, "CCCCC/C=C\C=C1\C(=O)C=C[C@@H]1C/C=C\CCCC(=O)O" this time
-- reply 3.41 µM (inactive)

-- ask Entry COc1ccc(NC2Oc3cc4c(cc3C(c3cccc(OC)c3OC)C2C)OCO4)cc1 (stereo not given) please
-- reply 19.2 µM (inactive)

-- ask Request: CCCCSCC(NC(=O)/C=C/c1c(C)[nH]c(=O)[nH]c1=O)C(=O)OC (stereo not given)
-- reply 77.1 µM (inactive)

-- ask Another compound: "Cc1ccc(N2C(=O)/C(=C3\Sc4c(nc(C)[nH]c4=O)N3c3ccccc3)SC2=S)cc1"
-- reply > 100 µM (inactive)

-- ask Would you mind doing COC(=O)C(C)(C)NC(=O)C(Cc1ccccc1)NC(=O)C(C)(C)NC(=O)OCc1ccccc1 (stereo not given) (Cbz-[Aib]-[ξF]-[Aib]-OMe) as well?
-- reply > 100 µM (inactive)

----------
# Tested on: DMS-114
# assayName: NCI tumour cell line growth inhibition, 48 h
Calls of active or inactive are those of the source. Cut-off read from the data, not from the text of the source: active = GI50 up to about 1.1 µM and inactive = higher.
GI50 by entry:

// below: answered molecules
>>> df
                                   molecule  measurementtarget          resultvalue
0  CC(=O)Nc1ccc(S(=O)(=O)NN(C)S(=O)(=O)c2ccc(C)cc2)cc1            DMS-114  > 100 µM (inactive)
1  COc1cccc2c(SCC(=O)Nc3ccccc3-c3ccccc3NC(=O)CSc3c4ccccc4nc4c(OC)cccc34)c3ccccc3nc12            DMS-114   29.1 µM (inactive)
2  COc1ccc2c(c1)[n+]([O-])c(C(=O)C/C(=N/NC(=O)C[N+](C)(C)C)C(=O)Nc1cccc(C)c1C)c(C)[n+]2[O-]            DMS-114  > 100 µM (inactive)

-- ask # query: GI50 of entry CC1(C)c2ccccc2C(C)(C)C(C(=O)Nc2ccccc2)C1C(=O)O (centres undefined)
-- reply 91.6 µM (inactive)

-- ask Note, next up: "CC(=O)OC(C)(C)C[N+](=O)[O-]"
-- reply > 100 µM (inactive)

-- ask Input OCCN1CCN2C=C(C3CCCC4N(CCO)CCN34)CCC21 (centres undefined)
-- reply 25.4 µM (inactive)

-- ask Then this molecule: COCOCC[C@@H]1CC=CC(NC(=O)OCc2ccccc2)C1/C=C/C(=O)CCC1OCCO1 (some centres undefined)
-- reply 29.9 µM (inactive)

-- ask Same thing, different molecule: "CN(OC(=O)CC(=O)c1ccccc1)C(=O)Cc1ccccc1"
-- reply > 100 µM (inactive)

-- ask Cool, now "COc1ccc2nc3cc(Cl)ccc3c(Sc3ccc([N+](=O)[O-])cc3C)c2c1"
-- reply > 100 µM (inactive)
